# EXPERIMENT NOTES: Bioavailability in rat at 1 mg/kg, iv and 3 mg/kg, po
# Format: ADME, organism-based
# TEST PARAMETERS: in vivo
RESULT TYPE: bioavailability (%)

[P] CCN1c2ccc(NS(=O)(=O)c3cccc(C(F)(F)F)c3)cc2N=C(c2ccc(C(=O)O)cc2)c2cc3c(cc21)C(C)(C)CCC3(C)C
[Q] CCCN1c2ccc(NS(=O)(=O)c3cccc(C(F)(F)F)c3)cc2N=C(c2ccc(C(=O)O)cc2)c2cc3c(cc21)C(C)(C)CCC3(C)C
Between P and Q , whose measured bioavailability reads higher? Please identify the chosen entry by its label.
P

---

# ASSAYED SYSTEM: Retinoic acid receptor RXR-alpha (Homo sapiens, UniProt P19793)
# Sequence (P19793 whole entry): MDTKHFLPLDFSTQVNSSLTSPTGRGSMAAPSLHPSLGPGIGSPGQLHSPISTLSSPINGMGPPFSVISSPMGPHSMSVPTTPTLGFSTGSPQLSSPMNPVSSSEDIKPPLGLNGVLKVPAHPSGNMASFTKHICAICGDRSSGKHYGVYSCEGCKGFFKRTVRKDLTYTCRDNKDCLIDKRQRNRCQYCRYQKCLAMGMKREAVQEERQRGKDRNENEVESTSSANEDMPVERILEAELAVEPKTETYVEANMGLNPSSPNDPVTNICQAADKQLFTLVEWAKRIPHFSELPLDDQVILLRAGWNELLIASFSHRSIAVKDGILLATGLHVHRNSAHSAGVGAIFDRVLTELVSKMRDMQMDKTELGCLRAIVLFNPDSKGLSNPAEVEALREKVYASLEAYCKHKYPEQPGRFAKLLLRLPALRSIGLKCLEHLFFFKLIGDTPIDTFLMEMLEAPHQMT
# EXPERIMENT NOTES: Antagonist activity at human RXRalpha expressed in […] cells assessed as inhibition of LG-100268-induced transactivation
# Format: functional, cell-based, HEK293
pIC50: −log10 of the molar value.
RESULT TYPE: pIC50

Answered examples (3):
>  <SMI>
CN1c2ccc(NC(=O)C34CC5CC(CC(C5)C3)C4)cc2N=C(c2ccc(C(=O)O)cc2)c2cc3c(cc21)C(C)(C)CCC3(C)C

>  <pIC50>
5.14

$$$$
>  <SMI>
CCCS(=O)(=O)Nc1ccc2c(c1)N=C(c1ccc(C(=O)O)cc1)c1cc3c(cc1N2C)C(C)(C)CCC3(C)C

>  <pIC50>
5.68

$$$$
>  <SMI>
CN1c2ccc(NS(=O)(=O)c3cccc(C(F)(F)F)c3)cc2N=C(c2ccc(C(=O)O)cc2)c2cc3c(cc21)C(C)(C)CCC3(C)C

>  <pIC50>
5.82

$$$$

[P] CN1c2ccc(NS(=O)(=O)c3ccccc3F)cc2N=C(c2ccc(C(=O)O)cc2)c2cc3c(cc21)C(C)(C)CCC3(C)C
[Q] CN1c2ccc(NS(=O)(=O)c3ccccc3C(F)(F)F)cc2N=C(c2ccc(C(=O)O)cc2)c2cc3c(cc21)C(C)(C)CCC3(C)C
Between P and Q , whose measured pIC50 reads higher? Please identify the chosen entry by its label.
Q

[A] CCCC(=O)Nc1ccc2c(c1)N=C(c1ccc(C(=O)O)cc1)c1cc3c(cc1N2C)C(C)(C)CCC3(C)C
[B] CCCCS(=O)(=O)Nc1ccc2c(c1)N=C(c1ccc(C(=O)O)cc1)c1cc3c(cc1N2CC)C(C)(C)CCC3(C)C
Between A and B , whose measured pIC50 reads higher? Please identify the chosen entry by its label.
B
(B: 6.49, A: 5.41)

---

# EXPERIMENT NOTES: Terminal elimination half life in rat at 1 mg/kg, iv
# Type: ADME, organism-based
# Set-up: dose 1 mg/kg, route intravenous
# TEST PARAMETERS: in vivo
RESULT TYPE: half-life (min)

>  <SMI>
CCCN1c2ccc(NS(=O)(=O)c3cccc(C(F)(F)F)c3)cc2N=C(c2ccc(C(=O)O)cc2)c2cc3c(cc21)C(C)(C)CCC3(C)C

>  <OUTPUT UNIT>
min

>  <half-life>
108

$$$$
>  <SMI>
CCN1c2ccc(NS(=O)(=O)c3cccc(C(F)(F)F)c3)cc2N=C(c2ccc(C(=O)O)cc2)c2cc3c(cc21)C(C)(C)CCC3(C)C

>  <OUTPUT UNIT>
min

>  <half-life>
126

$$$$

---

# ASSAYED SYSTEM: Retinoic acid receptor RXR-alpha (Homo sapiens, UniProt P19793)
# EXPERIMENT NOTES: Antagonist activity at human RXRalpha expressed in […] cells assessed as inhibition of LG-100268-induced transactivation
# Type: functional, cell-based, HEK293
pIC50: −log10 of the molar value.
RESULT TYPE: pIC50

>  <SMI>
CCCS(=O)(=O)Nc1ccc2c(c1)N=C(c1ccc(C(=O)O)cc1)c1cc3c(cc1N2CC)C(C)(C)CCC3(C)C

>  <pIC50>
6.24

$$$$

[A] CN1c2ccc(NC(=O)c3cccc(C(F)(F)F)c3)cc2N=C(c2ccc(C(=O)O)cc2)c2cc3c(cc21)C(C)(C)CCC3(C)C
[B] CN1c2ccc(NC(=O)Cc3ccccc3)cc2N=C(c2ccc(C(=O)O)cc2)c2cc3c(cc21)C(C)(C)CCC3(C)C
Of the pair A and B , name the member with the lesser recorded pIC50. Please identify the chosen entry by its label.
A

---

# ASSAYED SYSTEM: Retinoic acid receptor RXR-alpha (Homo sapiens, UniProt P19793)
# EXPERIMENT NOTES: Antagonist activity at human RXRalpha expressed in […] cells assessed as inhibition of LG-100268-induced transactivation
# Format: functional, cell-based, HEK293
RESULT TYPE: IC50 (nM)

Answered examples (2):
>  <SMI>
CCCN1c2ccc(NS(=O)(=O)c3cccc(C(F)(F)F)c3)cc2N=C(c2ccc(C(=O)O)cc2)c2cc3c(cc21)C(C)(C)CCC3(C)C

>  <ASSAYED SYSTEM>
Retinoic acid receptor RXR-alpha (Homo sapiens, UniProt P19793)

>  <RECORDED NUMBER>
190

$$$$
>  <SMI>
CN1c2ccc(NS(=O)(=O)c3ccc(C(F)(F)F)cc3)cc2N=C(c2ccc(C(=O)O)cc2)c2cc3c(cc21)C(C)(C)CCC3(C)C

>  <ASSAYED SYSTEM>
Retinoic acid receptor RXR-alpha (Homo sapiens, UniProt P19793)

>  <RECORDED NUMBER>
2200

$$$$

[I] CNC(=O)Nc1ccc2c(c1)N=C(c1ccc(C(=O)O)cc1)c1cc3c(cc1N2C)C(C)(C)CCC3(C)C
[II] CN1c2ccc(NC(=O)c3ccccc3)cc2N=C(c2ccc(C(=O)O)cc2)c2cc3c(cc21)C(C)(C)CCC3(C)C
[III] CCNC(=O)Nc1ccc2c(c1)N=C(c1ccc(C(=O)O)cc1)c1cc3c(cc1N2C)C(C)(C)CCC3(C)C
[IV] CCN1c2ccc(NS(=O)(=O)c3ccc(F)cc3)cc2N=C(c2ccc(C(=O)O)cc2)c2cc3c(cc21)C(C)(C)CCC3(C)C
Rank the 4 molecules: largest IC50 first, smallest last. Give the labels in the order specified.
I, III, II, IV
(I: 14000 nM, III: 7400 nM, II: 2000 nM, IV: 420 nM)

---

# EXPERIMENT NOTES: Plasma clearance in rat at 1 mg/kg, iv
# Assay type: ADME, organism-based
# Set-up: dose 1 mg/kg, route intravenous
RESULT TYPE: clearance (mL/min/kg)

>  <SMI>
CCCN1c2ccc(NS(=O)(=O)c3cccc(C(F)(F)F)c3)cc2N=C(c2ccc(C(=O)O)cc2)c2cc3c(cc21)C(C)(C)CCC3(C)C

>  <RECORDED NUMBER>
6.67

$$$$
>  <SMI>
CCN1c2ccc(NS(=O)(=O)c3cccc(C(F)(F)F)c3)cc2N=C(c2ccc(C(=O)O)cc2)c2cc3c(cc21)C(C)(C)CCC3(C)C

>  <RECORDED NUMBER>
8.33

$$$$

---

# ASSAYED SYSTEM: Retinoic acid receptor RXR-alpha (Homo sapiens)
# EXPERIMENT NOTES: Antagonist activity at human RXRalpha expressed in […] cells assessed as inhibition of LG-100268-induced transactivation
# Assay type: functional, cell-based, HEK293
pIC50: −log10 of the molar value.
RESULT TYPE: pIC50

Answered examples (2):
>  <SMI>
CN1c2ccc(NS(C)(=O)=O)cc2N=C(c2ccc(C(=O)O)cc2)c2cc3c(cc21)C(C)(C)CCC3(C)C

>  <pIC50>
5.36

$$$$
>  <SMI>
COc1ccc(S(=O)(=O)Nc2ccc3c(c2)N=C(c2ccc(C(=O)O)cc2)c2cc4c(cc2N3C)C(C)(C)CCC4(C)C)cc1

>  <pIC50>
5.60

$$$$

[1] CN1c2ccc(NS(=O)(=O)c3cccc(F)c3)cc2N=C(c2ccc(C(=O)O)cc2)c2cc3c(cc21)C(C)(C)CCC3(C)C
[2] CCCN1c2ccc(NS(=O)(=O)CCC)cc2N=C(c2ccc(C(=O)O)cc2)c2cc3c(cc21)C(C)(C)CCC3(C)C
Of the pair 1 and 2 , name the member with the lesser recorded pIC50. Please identify the chosen entry by its label.
1
(1: 5.64, 2: 6.08)
